target: HER2 YVMA (Homo sapiens, UniProt P04626, INS775YVMA); construct: expressed in transfected cells; host or cells: BaF3 (murine pro-B); test: Activity for inhibiting HER2 (Table B), HER2 YVMA; assay type: cell-based; conditions: read-out: HER2 YVMA, potency code (IC50)
Sequence (P04626 with tags, fused parts or gaps INS775YVMA): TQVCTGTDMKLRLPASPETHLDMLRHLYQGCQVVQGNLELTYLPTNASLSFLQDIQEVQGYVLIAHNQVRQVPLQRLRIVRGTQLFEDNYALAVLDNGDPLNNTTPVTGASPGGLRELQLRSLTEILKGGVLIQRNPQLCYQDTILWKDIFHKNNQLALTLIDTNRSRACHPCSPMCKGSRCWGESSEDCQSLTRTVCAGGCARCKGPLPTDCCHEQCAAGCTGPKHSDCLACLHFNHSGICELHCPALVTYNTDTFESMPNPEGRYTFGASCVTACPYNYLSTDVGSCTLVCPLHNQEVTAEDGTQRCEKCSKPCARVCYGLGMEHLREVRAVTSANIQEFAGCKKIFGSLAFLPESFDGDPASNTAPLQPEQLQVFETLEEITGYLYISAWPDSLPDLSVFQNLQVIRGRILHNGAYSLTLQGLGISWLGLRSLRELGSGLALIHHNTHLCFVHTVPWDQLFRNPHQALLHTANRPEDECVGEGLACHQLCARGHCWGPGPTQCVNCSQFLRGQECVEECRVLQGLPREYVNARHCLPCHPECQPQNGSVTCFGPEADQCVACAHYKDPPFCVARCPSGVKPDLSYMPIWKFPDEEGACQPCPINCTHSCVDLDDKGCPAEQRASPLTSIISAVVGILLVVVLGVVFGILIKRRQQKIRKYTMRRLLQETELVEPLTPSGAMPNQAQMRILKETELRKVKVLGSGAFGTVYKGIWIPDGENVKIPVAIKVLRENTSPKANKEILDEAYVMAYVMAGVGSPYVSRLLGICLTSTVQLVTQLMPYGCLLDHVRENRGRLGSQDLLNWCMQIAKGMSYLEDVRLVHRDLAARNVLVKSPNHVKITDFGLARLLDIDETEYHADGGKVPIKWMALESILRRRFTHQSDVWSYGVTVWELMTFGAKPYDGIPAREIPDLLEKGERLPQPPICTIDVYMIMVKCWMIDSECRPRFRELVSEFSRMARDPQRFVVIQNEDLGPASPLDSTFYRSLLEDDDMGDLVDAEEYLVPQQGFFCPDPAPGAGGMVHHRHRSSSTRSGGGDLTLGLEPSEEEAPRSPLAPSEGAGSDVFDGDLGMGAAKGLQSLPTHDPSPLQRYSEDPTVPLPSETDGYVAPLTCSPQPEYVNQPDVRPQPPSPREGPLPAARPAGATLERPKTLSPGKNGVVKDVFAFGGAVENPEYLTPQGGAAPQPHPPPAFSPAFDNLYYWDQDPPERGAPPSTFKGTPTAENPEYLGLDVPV
// reported IC50 for each item listed

The following molecules have reported results that may help.
1) CC#CC(=O)Nc1cc2c(Nc3ccc(OCc4ccccn4)c(Cl)c3)ncnc2cc1C#CC(C)(C)N1CCN(C)CC1; 0.05 to 0.1 µM
2) C=CC(=O)Nc1cc2c(Nc3ccc(OCc4ccccn4)c(Cl)c3)ncnc2cc1N1CCN(C)CC1; 0.5 to 1 µM
3) C=CC(=O)Nc1cc2c(Nc3ccc(OCc4ccccn4)cc3F)ncnc2cc1OCCN1CCOCC1; 0.2 to 0.3 µM
4) CC#CC(=O)Nc1cc2c(Nc3cc(Cl)c(OCc4cccc(F)c4)cc3F)ncnc2cc1OCCCN1CCOCC1; 0.03 to 0.05 µM
5) C=CC(=O)Nc1cc2c(Nc3ccc(OCc4ccccn4)c(Cl)c3)ncnc2cc1C#CC(C)(C)NC; 0.1 to 0.2 µM
6) C=CC(=O)Nc1cc2c(Nc3cc(Cl)c(OCc4cccc(F)c4)cc3F)ncnc2cc1OCCN1CCN(C)CC1; 0.2 to 0.3 µM

Identify measured IC50 obtained with HER2 YVMA (Homo sapiens, UniProt P04626, INS775YVMA) for C=CC(=O)Nc1cc2c(Nc3cnc(NCc4ccccn4)c(Cl)c3)ncnc2cc1OCCN1CCOCC1 .
0.5 to 1 µM

###

// reported pIC50 for each item listed
molecular target: HER2 S310F (Homo sapiens, UniProt P04626, S310F); construct: expressed in transfected cells; host or cells: BaF3 (murine pro-B); test: Activity for inhibiting HER2 (Table B), HER2 S310F; assay type: cell-based; settings: read-out: HER2 S310F, potency code (IC50)
Sequence (P04626 23-1255 S310F): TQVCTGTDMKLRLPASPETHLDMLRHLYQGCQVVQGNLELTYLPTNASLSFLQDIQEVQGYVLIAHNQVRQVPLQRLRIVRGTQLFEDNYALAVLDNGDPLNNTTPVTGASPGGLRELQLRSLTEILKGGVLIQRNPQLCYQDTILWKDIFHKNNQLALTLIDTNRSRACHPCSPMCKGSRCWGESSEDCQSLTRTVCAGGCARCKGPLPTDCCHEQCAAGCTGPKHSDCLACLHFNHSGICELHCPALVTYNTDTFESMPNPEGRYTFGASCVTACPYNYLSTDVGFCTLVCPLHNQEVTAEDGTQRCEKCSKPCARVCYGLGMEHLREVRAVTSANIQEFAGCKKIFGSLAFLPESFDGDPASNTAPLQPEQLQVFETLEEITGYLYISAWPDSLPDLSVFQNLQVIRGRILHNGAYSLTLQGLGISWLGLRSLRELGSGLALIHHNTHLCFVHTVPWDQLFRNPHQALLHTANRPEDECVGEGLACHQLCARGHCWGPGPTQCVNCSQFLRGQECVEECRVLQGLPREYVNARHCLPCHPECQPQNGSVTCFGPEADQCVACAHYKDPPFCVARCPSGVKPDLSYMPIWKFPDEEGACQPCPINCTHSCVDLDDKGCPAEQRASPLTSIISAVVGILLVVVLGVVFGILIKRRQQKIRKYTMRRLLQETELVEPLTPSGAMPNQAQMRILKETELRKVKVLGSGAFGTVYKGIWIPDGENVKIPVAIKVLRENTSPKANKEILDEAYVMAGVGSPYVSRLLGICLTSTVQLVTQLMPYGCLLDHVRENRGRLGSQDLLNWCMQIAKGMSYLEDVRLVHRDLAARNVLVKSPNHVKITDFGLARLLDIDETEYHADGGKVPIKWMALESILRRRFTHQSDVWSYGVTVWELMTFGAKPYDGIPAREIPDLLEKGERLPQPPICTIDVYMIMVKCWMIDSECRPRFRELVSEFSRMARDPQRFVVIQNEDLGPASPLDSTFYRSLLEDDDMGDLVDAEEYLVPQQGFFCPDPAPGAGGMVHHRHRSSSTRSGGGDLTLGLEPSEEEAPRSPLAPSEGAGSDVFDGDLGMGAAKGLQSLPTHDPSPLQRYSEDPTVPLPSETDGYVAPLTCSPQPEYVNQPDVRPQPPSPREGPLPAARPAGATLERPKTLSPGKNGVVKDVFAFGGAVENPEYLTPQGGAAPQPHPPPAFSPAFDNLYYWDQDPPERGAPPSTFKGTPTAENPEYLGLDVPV
pIC50: −log10 of the molar value.

The following compounds have reported results that may help.
1) C=CC(=O)Nc1cc2c(Nc3ccc(OCc4ccccn4)cn3)ncnc2cc1OC1CCN(C)C1 (stereo not drawn) [compound 61]; 6.30 to 6.52
2) C=CC(=O)Nc1cc2c(Nc3ccc(OCc4ccccn4)c(Cl)c3)ncnc2cc1OCCN(C)C [compound 19]; 7.52 to 7.70
3) C=CC(=O)Nc1cc2c(Nc3ccc(Oc4cccnc4)cc3)ncnc2cc1OCCN1CCOCC1 [compound 75]; 6.70 to 7.00
4) C=CC(=O)Nc1cc2c(Nc3ccc(Oc4cccc(Cl)c4)cc3)ncnc2cc1OCCN1CCOCC1 [compound 37]; 7.00 to 7.30
5) C=CC(=O)Nc1cc2c(Nc3ccc(OCc4cccnn4)c(Cl)c3)ncnc2cc1OCCN1CCN(C)CC1 [compound 172]; 7.00 to 7.30
6) C=CC(=O)Nc1cc2c(Nc3ccc(OCc4ccccn4)c(Cl)c3)ncnc2cc1OCCN1CC2(CCO2)C1 [compound 52]; 7.52 to 7.70
7) C=CC(=O)Nc1cc2c(Nc3ccc(OCc4ccccn4)c(Cl)c3)ncnc2cc1OCC12CCC(CC1)N2C [compound 122]; 6.70 to 7.00
8) C=CC(=O)Nc1cc2c(Nc3ccc(OCc4cccnn4)c(Cl)c3)ncnc2cc1OCCCN1CCOCC1 [compound 167]; 7.70 to 8.00

Read the entry CC#CC(=O)Nc1cc2c(Nc3ccc(OCc4ccccn4)c(Cl)c3)ncnc2cc1OCCN1CCN(C)CC1 [compound 70] and write its reported pIC50.
8.00 to 8.30

Read the entry C=CC(=O)Nc1cc2c(Nc3ccc(OCc4ccccn4)c(Cl)c3)ncnc2cc1OCCN(C)C1CC1 [compound 53] and write its reported pIC50.
7.30 to 7.52

Read the entry C=CC(=O)Nc1cc2c(Nc3ccc(Oc4ccc(C)nc4)c(C)c3)ncnc2cc1C#C[C@@H]1[C@H]2CN(C)C[C@@H]12 [compound 104] and write its reported pIC50.
7.30 to 7.52

###

biological target: HER2 YVMA (Homo sapiens, UniProt P04626, INS775YVMA); construct: expressed in transfected cells; host or cells: BaF3 (murine pro-B); assay: Activity for inhibiting HER2 (Table B), HER2 YVMA; type: cell-based; conditions: read-out: HER2 YVMA, potency code (IC50)
pIC50: −log10 of the molar value.
// reported pIC50 for each item listed

The following molecules have reported results that may help.
1) C=CC(=O)Nc1cc2c(Nc3ccc(OCc4cnccn4)c(Cl)c3)ncnc2cc1OCCCN1CC(OC)C1 [compound 179]; 7.30 to 7.52
2) C=CC(=O)Nc1cc2c(Nc3cc(Cl)c(OCc4cccc(F)c4)cc3F)ncnc2cc1OCCN1CC(OC)C1 [compound 134]; 6.30 to 6.52
3) C=CC(=O)Nc1cc2c(Nc3ccc(OCc4ccccn4)c(Cl)c3)ncnc2cc1N1CCC(N(C)C)C1 (centres unmarked) [compound 64]; < 6.00
4) C=CC(=O)Nc1cc2c(Nc3ccc(OCc4ccccn4)c(Cl)c3)ncnc2cc1OCCCN1CC2CC1CO2 (centres unmarked) [compound 20]; 7.70 to 8.00
5) C=CC(=O)Nc1cc2c(Nc3ccc(OCc4ccccn4)c(Cl)c3)ncnc2cc1N1CCC(N(C)C)CC1 [compound 78]; 6.00 to 6.30

Read the entry C=CC(=O)Nc1cc2c(Nc3ccc(OCc4cccc(C)n4)c(Cl)c3)ncnc2cc1OCCN1CC(OC)C1 [compound 135] and write its reported pIC50.
6.30 to 6.52

Read the entry C=CC(=O)Nc1cc2c(Nc3ccc(OCc4ccccn4)c(Cl)c3)ncnc2cc1OCCN(C)C [compound 19] and write its reported pIC50.
6.70 to 7.00

Read the entry C=CC(=O)Nc1cc2c(Nc3ccc(OCc4ccccn4)c(Cl)c3)ncnc2cc1OCCN1CCC(O)C1 (centres unmarked) [compound 30] and write its reported pIC50.
6.70 to 7.00

Read the entry C=CC(=O)Nc1cc2c(Nc3ccc(OCc4cccc(C)n4)c(Cl)c3)ncnc2cc1OCCN1CCOCC1 [compound 128] and write its reported pIC50.
6.30 to 6.52

Read the entry C=CC(=O)Nc1cc2c(Nc3ccc(OCc4cccc(F)c4)c(Cl)c3)ncnc2cc1OCCN1CC2CCC(C1)O2 [compound 139] and write its reported pIC50.
6.70 to 7.00

Read the entry C=CC(=O)Nc1cc2c(Nc3ccc(OCc4ccncn4)c(Cl)c3)ncnc2cc1OCCCN1CCOCC1 [compound 163] and write its reported pIC50.
6.70 to 7.00

Read the entry C=CC(=O)Nc1cc2c(Nc3ccc(OCc4cccc(C)n4)c(Cl)c3)ncnc2cc1O[C@@H]1CCN(C)C1 [compound 140] and write its reported pIC50.
6.30 to 6.52

###

molecular target: EGFR V3 (Homo sapiens, UniProt P00533, DELINS30-297G); construct: expressed in transfected cells; host or cells: BaF3 (murine pro-B), retroviral pMXs-IRES-Blasticidin; test: BaF3 cell proliferation assay, EGFR V3 (Table A); format: cell-based; conditions: potency code, 3 days, CellTiterGlo, read-out: EGFR V3 (Activity for Inhibiting EGFR)
Sequence (P00533 with tags, fused parts or gaps DELINS30-297G): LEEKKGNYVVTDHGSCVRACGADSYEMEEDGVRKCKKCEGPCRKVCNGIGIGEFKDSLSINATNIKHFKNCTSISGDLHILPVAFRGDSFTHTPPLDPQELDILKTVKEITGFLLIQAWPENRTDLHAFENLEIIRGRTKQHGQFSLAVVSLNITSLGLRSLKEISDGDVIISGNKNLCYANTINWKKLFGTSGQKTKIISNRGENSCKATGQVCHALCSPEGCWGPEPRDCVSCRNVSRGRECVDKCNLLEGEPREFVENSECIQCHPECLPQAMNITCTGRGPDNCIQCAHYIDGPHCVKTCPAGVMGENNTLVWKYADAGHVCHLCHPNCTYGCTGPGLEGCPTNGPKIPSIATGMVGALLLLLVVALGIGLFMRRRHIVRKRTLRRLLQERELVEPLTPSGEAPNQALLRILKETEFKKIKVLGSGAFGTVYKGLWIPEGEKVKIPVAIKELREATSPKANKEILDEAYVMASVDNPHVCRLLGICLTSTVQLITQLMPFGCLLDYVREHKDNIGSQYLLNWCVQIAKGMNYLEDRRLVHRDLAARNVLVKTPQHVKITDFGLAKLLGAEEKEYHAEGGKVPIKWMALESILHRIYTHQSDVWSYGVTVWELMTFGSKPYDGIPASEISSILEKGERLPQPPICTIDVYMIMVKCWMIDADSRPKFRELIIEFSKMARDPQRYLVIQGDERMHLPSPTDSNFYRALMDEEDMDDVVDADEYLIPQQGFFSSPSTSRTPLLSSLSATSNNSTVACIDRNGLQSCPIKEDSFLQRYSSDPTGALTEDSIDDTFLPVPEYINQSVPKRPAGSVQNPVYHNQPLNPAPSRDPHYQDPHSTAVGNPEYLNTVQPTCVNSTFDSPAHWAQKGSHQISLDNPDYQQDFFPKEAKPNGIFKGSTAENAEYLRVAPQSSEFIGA
measured_quantity: IC50

The following compounds have reported results that may help.
1. C=CC(=O)Nc1cc2c(Nc3ccc(OCc4ccccn4)c(Cl)c3)ncnc2cc1C#CC1CCCN1 (stereo not drawn); 50 to 100 nM
2. C=CC(=O)Nc1cc2c(Nc3ccc(OCc4ccccn4)c(Cl)c3)ncnc2cc1OCCN1CC2COCC2C1 (stereo not drawn); 20 to 30 nM
3. C=CC(=O)Nc1cc2c(Nc3ccc(OCc4ccccn4)c(Cl)c3)ncnc2cc1OCCN1CCC2C1CCN2C (stereo not drawn); 30 to 50 nM
4. C=CC(=O)Nc1cc2c(Nc3ccc(OCc4ccccn4)c(Cl)c3)ncnc2cc1C#CC1[C@H]2CNC[C@@H]12 (stereo partly drawn); 50 to 100 nM
5. C=CC(=O)Nc1cc2c(Nc3ccc(OCc4ccccn4)c(Cl)c3)ncnc2cc1OCCN(C)CC; 20 to 30 nM

Identify measured IC50 obtained with EGFR V3 (Homo sapiens, UniProt P00533, DELINS30-297G) for C=CC(=O)Nc1cc2c(Nc3ccc(OCc4ccccn4)c(Cl)c3)ncnc2cc1OCCN1CC(OC)C1 .
20 to 30 nM

Identify measured IC50 obtained with EGFR V3 (Homo sapiens, UniProt P00533, DELINS30-297G) for C=CC(=O)Nc1cc2c(Nc3ccc(OCc4ccccn4)c(Cl)c3)ncnc2cc1OCCCN1CC(OC)C1 .
20 to 30 nM

Identify measured IC50 obtained with EGFR V3 (Homo sapiens, UniProt P00533, DELINS30-297G) for C=CC(=O)Nc1cc2c(Nc3ccc(OCc4ccccn4)c(Cl)c3)ncnc2cc1OCCN1CC2CC1CO2 (stereo not drawn) .
20 to 30 nM

Identify measured IC50 obtained with EGFR V3 (Homo sapiens, UniProt P00533, DELINS30-297G) for C=CC(=O)Nc1cc2c(Nc3ccc(OCc4cccc(C)n4)c(Cl)c3)ncnc2cc1OCCN1CCN(C)CC1 .
50 to 100 nM

Identify measured IC50 obtained with EGFR V3 (Homo sapiens, UniProt P00533, DELINS30-297G) for C=CC(=O)Nc1cc2c(Nc3ccc(OCc4ccncn4)c(Cl)c3)ncnc2cc1OCCCN1CCOCC1 .
50 to 100 nM

Identify measured IC50 obtained with EGFR V3 (Homo sapiens, UniProt P00533, DELINS30-297G) for C=CC(=O)Nc1cc2c(Nc3ccc(OCc4ccccn4)cc3)ncnc2cc1OCCn1ccnc1 .
50 to 100 nM

Identify measured IC50 obtained with EGFR V3 (Homo sapiens, UniProt P00533, DELINS30-297G) for C=CC(=O)Nc1cc2c(Nc3ccc(OCc4cnccn4)c(Cl)c3)ncnc2cc1OCCN1CC(OC)C1 .
30 to 50 nM

Identify measured IC50 obtained with EGFR V3 (Homo sapiens, UniProt P00533, DELINS30-297G) for C=CC(=O)Nc1cc2c(Nc3ccc(Oc4ccccc4)cc3)ncnc2cc1C#C[C@@H]1[C@H]2CN(C)C[C@@H]12 .
30 to 50 nM

Identify measured IC50 obtained with EGFR V3 (Homo sapiens, UniProt P00533, DELINS30-297G) for CC#CC(=O)Nc1cc2c(Nc3cc(Cl)c(OCc4cccc(F)c4)cc3F)ncnc2cc1OCCN1CC(OC)C1 .
30 to 50 nM

Identify measured IC50 obtained with EGFR V3 (Homo sapiens, UniProt P00533, DELINS30-297G) for C=CC(=O)Nc1cc2c(Nc3ccc(OCc4ccccn4)c(Cl)c3)ncnc2cc1N1CC2(CCN2C)C1 .
30 to 50 nM

Origin of the recorded values: patent US11034672B1
